Literature-derived Ki for Serine/threonine-protein kinase PLK1 (Homo sapiens, UniProt P53350) follows.

{"SMILES_REPR": "COc1cc(C(=O)NCc2cccnc2)ccc1Nc1ncc2c(n1)N(C1CCCC1)CC(C)(C)C(=O)N2C", "TARGET_SYSTEM": "Serine/threonine-protein kinase PLK1 (Homo sapiens, UniProt P53350)", "Ki": "< 10 nM"}
{"SMILES_REPR": "CC1(C)c2[nH]nc(NC(=O)C3([Si](C)(C)C)CCC3)c2CN1C(=O)Nc1c(F)ccc2c1OCC2", "TARGET_SYSTEM": "Serine/threonine-protein kinase PLK1 (Homo sapiens, UniProt P53350)", "Ki": "≥ 5000 nM"}
{"SMILES_REPR": "CNC(=O)c1ccc(Nc2ncc3c(n2)N([C@@H]2CCN(CC4CC4)C2)CC(C)(C)C(=O)N3C)c(OC)c1", "TARGET_SYSTEM": "Serine/threonine-protein kinase PLK1 (Homo sapiens, UniProt P53350)", "Ki": "10 to 100 nM"}
{"SMILES_REPR": "Cc1nc(NCc2cnn(Cc3cccc(C(F)(F)F)c3)c2)nc2c1NC(=O)[C@H](C)N2C", "TARGET_SYSTEM": "Serine/threonine-protein kinase PLK1 (Homo sapiens, UniProt P53350)", "Ki": "> 4000 nM"}
{"SMILES_REPR": "CN1C(=O)C(C)(C)CN(C2CCCC2)c2nc(Nc3cccc(C(=O)NC4CN(C(=O)OC(C)(C)C)C4)c3)ncc21", "TARGET_SYSTEM": "Serine/threonine-protein kinase PLK1 (Homo sapiens, UniProt P53350)", "Ki": "10 to 100 nM"}

Log: Serine/threonine-protein kinase PLK1 (Homo sapiens, UniProt P53350), compound CN1C(=O)C(C)(C)CN(C2CCCC2)c2nc(Nc3ccc(-n4ccnc4)cc3)ncc21 , Ki = < 10 nM

Log: Serine/threonine-protein kinase PLK1 (Homo sapiens, UniProt P53350), compound N#Cc1cnc(NC[C@H]2CC[C@@H](O)C2)nc1-c1c[nH]c2ncc(C(F)(F)F)cc12 , Ki = 3 to 40 nM
